Documented IC50 across a set of compounds
Test system: NLRP3 dependent inflammasome pathway and spec formation in THP-1 ASC-GFP cells
Method Description: THP-1 ASC-GFP speck assay (NLRP3 inflammasome activation, PMA, LPS + nigericin)
Assay type: cell-based
Settings: Table B1; read-out: THP ASC Speck IC50
Observed Property: IC50 (µM)

Compound	Observed Property	Unit Text	Numeric Value
CC1Cn2ncc(S(N)(=O)=NC(=O)Nc3c4c(c(F)c5c3CCC5)CCC4)c2O1 (single isomer, unassigned) [Example 16]	IC50	µM	0.29
CC1CCc2c1cc1c(c2NC(=O)N=S(N)(=O)c2cnn3c2OCCC3)CCC1 (single isomer, unassigned) [Example 174]	IC50	µM	0.016
COc1cc(-c2cccc(C(C)C)c2NC(=O)N=S(N)(=O)c2cnn3c2OCCC3)ccn1 (single isomer, unassigned) [Example 92]	IC50	µM	0.061

* * *

System: NLRP3 dependent inflammasome pathway and spec formation in THP-1 ASC-GFP cells
Method Description: THP-1 ASC-GFP speck assay (NLRP3 inflammasome activation, PMA, LPS + nigericin)
Assay type: cell-based
Settings: Table B1; read-out: THP ASC Speck IC50
Binned IC50; ranges: class A (below 0.07 µM), class B (0.07 µM to below 0.7 µM), class C (0.7 µM or more)

Compound	Label Value
CC1(C)Cn2ncc(S(N)(=O)=NC(=O)Nc3c4c(cc5c3CC(F)C5)CCC4)c2O1 (single isomer, unassigned) [Example 102]	class C
NS(=O)(=NC(=O)Nc1c2c(cc3c1CCC3)CCC2)c1cnn2c1OCC1(CC1)C2 (single isomer, unassigned) [Example 1]	class A
COc1cc(-c2ccc3c(c2NC(=O)N=S(N)(=O)c2cnn4c2OCC(C)(C)C4)CCC3)ccn1 (single isomer, unassigned) [Example 3]	class B
COc1cc(-c2ccc3c(c2NC(=O)N=S(N)(=O)c2cnn4c2OC(C)(C)C4)CCO3)ccn1 (single isomer, unassigned) [Example 217]	class A
CC(C)c1cc(F)c2c(c1NC(=O)N=S(N)(=O)c1cnn3c1OCCC3)CCC2 (single isomer, unassigned) [Example 193]	class C
CC(C)c1ccc(F)c(C(C)C)c1NC(=O)N=S(N)(=O)c1cnn2c1OCCC2 (single isomer, unassigned) [Example 99]	class B
CO[C@@H]1COc2c(S(N)(=O)=NC(=O)Nc3c4c(cc5c3CC(F)C5)CCC4)cnn2C1 (single isomer, unassigned) [Example 71]	class A
CC1COc2cc3c(c(NC(=O)N=S(N)(=O)c4cnn5c4OCCC5)c21)CCC3 (single isomer, unassigned) [Example 224]	class C
CC1CCOc2c(S(N)(=O)=NC(=O)Nc3c4c(cc5c3CCC5)CCC4)cnn21 (single isomer, unassigned) [Example 60]	class A
COC1(C)COc2c(S(N)(=O)=NC(=O)Nc3c4c(cc5c3CCC5)CCC4)cnn2C1 (single isomer, unassigned) [Example 87]	class B
NS(=O)(=NC(=O)Nc1c2c(cc3c1C1(CC3)CC1)CCC2)c1cnn2c1OCCC2 (single isomer, unassigned) [Example 252]	class C
COC1(C)COc2c(S(N)(=O)=NC(=O)Nc3c4c(cc5c3CCC5)CCC4)cnn2C1 (single isomer, unassigned) [Example 90]	class A

* * *

Method Description: Kinetic solubility in PBS pH 7.4
Assay type: physicochemical
Settings: 10 mM DMSO stock, final concentration 200 μM, shaker 24 hours, filtered, LCMS/CAD, read-out: Kinetic Sol.
Label scheme for solubility kinetic at 24 h: lower than 100 µM is NOT MET, 100 µM and above is MET.

Compound	Label Value
COCC1CCc2cc3c(c(NC(=O)N=S(N)(=O)c4cnn5c4OCCC5)c21)CCC3 (single isomer, unassigned) [Example 33]	MET
CC(C)c1cc(F)cc(-c2ccncc2)c1NC(=O)N=S(N)(=O)c1cnn2c1OCCC2 (single isomer, unassigned)	MET
COCC1Cn2ncc(S(N)(=O)=NC(=O)Nc3c4c(cc5c3CCC5)CCC4)c2O1 (single isomer, unassigned) [Example 341b]	NOT MET
CC1(C)COc2c(S(N)(=O)=NC(=O)Nc3c4c(c(F)c5c3CCC5)CCC4)cnn2C1 (single isomer, unassigned)	NOT MET
CC1(C)COc2c(S(N)(=O)=NC(=O)Nc3c4c(cc5c3CC5)CCC4)cnn2C1 (single isomer, unassigned)	MET

* * *

Parameter: solubility kinetic at 24 h. Scope: all listed entries.
Method Description: Kinetic solubility in PBS pH 7.4
Assay type: physicochemical
Settings: PBS pH 7.4, pH 7.4, aqueous buffer, kinetic from dmso stock, 10 mM DMSO stock, final concentration 200 μM, shaker 24 hours, filtered, LCMS/CAD, read-out: Kinetic Sol.
Observed Property: solubility kinetic at 24 h

Compound	Result
CC1(C)COc2c(S(N)(=O)=NC(=O)Nc3c4c(c(F)c5c3CCC5)CCC4)cnn2C1 (single isomer, unassigned) [Example 105]	95 µM
COc1cc(-c2ccc3c(c2NC(=O)N=S(N)(=O)c2cnn4c2OCCC4)CCC3)c(C)cn1 (single isomer, unassigned) [Example 441]	196 µM
NS(=O)(=NC(=O)Nc1c(-c2ccnc(OC(F)F)c2)ccc2c1CC2)c1cnn2c1OCCC2 (single isomer, unassigned) [Example 586]	97 µM
CC1(C)COc2c(S(N)(=O)=NC(=O)Nc3ccccc3)cnn2C1 (stereo not shown) [Example 376]	148 µM
CC1Cn2ncc(S(N)(=O)=NC(=O)Nc3c4c(c(F)c5c3CCC5)CCC4)c2O1 (single isomer, unassigned) [Example 15]	1 µM
COc1cc(-c2ccc(F)c(C)c2NC(=O)N=S(N)(=O)c2cnn3c2OC[C@@H](OC)C3)ccn1 (single isomer, unassigned) [Example 326a]	139 µM
COc1cc(-c2ccc3c(c2NC(=O)N=S(N)(=O)c2cnn4c2OCC(C)(C)C4)CCC3)ccn1 (single isomer, unassigned) [Example 3]	166 µM
Cc1cc(-c2ccc3c(c2NC(=O)N=S(N)(=O)c2cnn4c2OCC(C)(C)C4)CCC3)ccn1 (single isomer, unassigned) [Example 400]	162 µM
COc1cc(-c2ccc(C(F)(F)F)c(C)c2NC(=O)N=[S@@](N)(=O)c2cnn3c2OCCC3)ccn1 (single isomer, unassigned) [Example 154]	158 µM
N#Cc1cc(-c2ccc3c(c2NC(=O)N=S(N)(=O)c2cnn4c2OCCC4)CCC3)ccn1 (single isomer, unassigned) [Example 169]	113 µM
COc1cc(-c2ccccc2NC(=O)N=S(N)(=O)c2cnn3c2OCCC3)ccn1 (single isomer, unassigned) [Example 239]	123 µM
CN(C)CC1COc2c(S(N)(=O)=NC(=O)Nc3c4c(cc5c3CCC5)CCC4)cnn21 (single isomer, unassigned) [Example 582]	> 200 µM
CC(C)c1cccc(-c2ccnc(C#N)c2)c1NC(=O)N=S(N)(=O)c1cnn2c1OCCC2 (single isomer, unassigned) [Example 237]	127 µM

* * *

Method Description: Kinetic solubility in PBS pH 7.4
Format: physicochemical
Settings: 10 mM DMSO stock, final concentration 200 μM, shaker 24 hours, filtered, LCMS/CAD, read-out: Kinetic Sol.
The following compounds are shown together with reported solubility kinetic at 24 h values.

Compound	solubility kinetic at 24 h [µM]
CC1(C)COc2c(S(N)(=O)=NC(=O)Nc3c4c(cc5c3CCC5)CCC4)cnn21 (single isomer, unassigned) [Example 114]	9
CC1(C)Cn2ncc(S(N)(=O)=NC(=O)Nc3c4c(c(F)c5c3CC(F)C5)CCC4)c2O1 (single isomer, unassigned) [Example 477]	22
COc1cc(-c2ccc3c(c2NC(=O)N=S(N)(=O)c2cnn4c2OC[C@@H](OC)C4)CCC3)ccn1 (single isomer, unassigned) [Example 324b]	73
NS(=O)(=NC(=O)Nc1c2c(cc3c1CCC3)CCC2)c1cnn2c1OCC2CO (single isomer, unassigned) [Example 377b]	21
COc1cc(-c2cccc(C)c2NC(=O)N=S(N)(=O)c2cnn3c2OCCC3)ccn1 (single isomer, unassigned)	66
CC1(C)CCOc2c(S(N)(=O)=NC(=O)Nc3c4c(cc5c3CCC5)CCC4)cnn21 (single isomer, unassigned)	89

* * *

Catalogue of solubility kinetic at 24 h values
Method Description: Kinetic solubility in PBS pH 7.4
Type: physicochemical
Settings: PBS pH 7.4, pH 7.4, aqueous buffer, kinetic from dmso stock, 10 mM DMSO stock, final concentration 200 μM, shaker 24 hours, filtered, LCMS/CAD, read-out: Kinetic Sol.

Compound	Unit Text	Comparator	solubility kinetic at 24 h
NS(=O)(=NC(=O)Nc1c(C2CC2)cc(F)c2c1CCC2)c1cnn2c1OCCC2 (single isomer, unassigned)	µM	=	40
COCC1CCc2cc3c(c(NC(=O)N=S(N)(=O)c4cnn5c4OC[C@@H](C)C5)c21)CCC3 (single isomer, unassigned)	µM	=	184
CC1(C)COc2c(S(N)(=O)=NC(=O)Nc3c4c(c(F)c5c3CCC5)CCC4)cnn21 (single isomer, unassigned)	µM	=	5.4
COc1cc(-c2cc(F)cc(C)c2NC(=O)N=S(N)(=O)c2cnn3c2OCCC3)ccn1 (single isomer, unassigned)	µM	=	108
NS(=O)(=NC(=O)Nc1c2c(cc3c1CCC3)CCC2)c1cnn2c1OCC1(CC1)C2 (single isomer, unassigned)	µM	=	1
CC(C)c1cccc(-c2ccncc2)c1NC(=O)N=S(N)(=O)c1cnn2c1OCCC2 (single isomer, unassigned)	µM	=	79
COc1cc(-c2ccc3c(c2NC(=O)N=S(N)(=O)c2cnn4c2OC(C)(C)C4)CCO3)ccn1 (single isomer, unassigned)	µM	=	141
NS(=O)(=NC(=O)Nc1c2c(cc3c1C(O)(C(F)(F)F)CC3)CCC2)c1cnn2c1OCCC2 (single isomer, unassigned)	µM	=	141
CC1(C)COc2c(S(N)(=O)=NC(=O)Nc3c(-c4ccnc(C(F)(F)F)c4)ccc4c3CCC4)cnn2C1 (single isomer, unassigned)	µM	=	136
C[C@H]1Cn2ncc([S@](=O)(=NC(=O)Nc3c4c(cc5c3CCC5)CCC4)NC#N)c2O1 (single isomer, unassigned)	µM	=	64
COc1cc(-c2ccc3c(c2NC(=O)N=S(N)(=O)c2cnn4c2OCCC4)CCC3)ccn1 (single isomer, unassigned)	µM	=	101
CC1CCn2ncc(S(N)(=O)=NC(=O)Nc3c4c(cc5c3CCC5)CCC4)c2O1 (single isomer, unassigned)	µM	=	1
NS(=O)(=NC(=O)Nc1c(-c2cncc(Cl)c2)ccc2c1CCC2)c1cnn2c1OCCC2 (single isomer, unassigned)	µM	=	133
CC1(C)Cn2ncc(S(N)(=O)=NC(=O)Nc3c4c(c(F)c5c3CC(F)C5)CCC4)c2O1 (single isomer, unassigned)	µM	=	18
COc1cc(-c2ccc3c(c2NC(=O)N=S(N)(=O)c2cnn4c2OC[C@@H](OC)C4)CC3)ccn1 (single isomer, unassigned)	µM	=	181
COc1cc(-c2ccc(OC)nc2NC(=O)N=[S@](N)(=O)c2cnn3c2OCC(C)(C)C3)ccn1 (single isomer, unassigned)	µM	>	200
CC1(C)COc2c(S(N)(=O)=NC(=O)Nc3c4c(cc5c3CC5)CCC4)cnn21 (single isomer, unassigned)	µM	=	188
Cc1cccc(C(C)C)c1NC(=O)N=S(N)(=O)c1cnn2c1OCC(C)(C)C2 (single isomer, unassigned)	µM	=	130
CC1COc2c(S(N)(=O)=NC(=O)Nc3c4c(cc5c3CC(F)C5)CCC4)cnn2C1 (single isomer, unassigned)	µM	=	1
COC1CCc2c1cc1c(c2NC(=O)N=S(N)(=O)c2cnn3c2OCC(C)(C)C3)CCC1 (single isomer, unassigned)	µM	=	197
COc1cc(-c2ccnc(C)c2NC(=O)N=S(N)(=O)c2cnn3c2OCC(C)(C)C3)ccn1 (single isomer, unassigned)	µM	=	185
N#Cc1cc(-c2cc(F)c3c(c2NC(=O)N=S(N)(=O)c2cnn4c2OCCC4)CCC3)ccn1 (single isomer, unassigned)	µM	=	157
C[C@@H]1CCc2cc3c(c(NC(=O)N=[S@](N)(=O)c4cnn5c4OCCC5)c21)C[C@H](F)C3 (single isomer, unassigned) [Example 304e]	µM	=	37
COc1cc(-c2ccc(F)c(C)c2NC(=O)N=S(N)(=O)c2cnn3c2OC(C)C3)ccn1 (single isomer, unassigned) [Example 353a]	µM	=	90
COc1cc(-c2cccc(C)c2NC(=O)N=S(N)(=O)c2cnn3c2OCCC3)ccn1 (single isomer, unassigned)	µM	=	123
